assay: Pharmacokinetic study, 3 mg/kg IV, 10 mg/kg PO and 10 mg/kg PO QD*3, plasma, liver and bone; assay type: in vivo, mouse; details: female, C57BL/6J, mouse, bone (long bones), po, 10 mg/kg, bone, PO, 1 h, individual animals; read-out: Bone 6641 PO concentration
observation type: concentration at 1 h (ng/g)

[[record]]
smiles_record = "O=C1Nc2ccc(-c3cc(C(F)(F)F)cc(C(F)(F)F)c3)cc2C(=O)N2CCN(C(=O)COc3ccc(OC(F)(F)F)cc3I)C[C@@H]12"
observation_type = "concentration at 1 h"
reported_measurement = 114


* * *

test: Pharmacokinetic study, single 30 mg/kg IP dose, plasma, liver and bone; format: in vivo, mouse; conditions: female, C57BL/6J, mouse, plasma, ip, 30 mg/kg, Time 8 h; individual values (1)-(3)
observation type: concentration at 8 h (ng/mL)

[[record]]
smiles_record = "O=C1Nc2ccc(-c3cc(C(F)(F)F)cc(C(F)(F)F)c3)cc2C(=O)N2CCN(C(=O)COc3ccc(OC(F)(F)F)cc3I)C[C@@H]12"
observation_type = "concentration at 8 h"
reported_measurement = 2190


* * *

experiment: Pharmacokinetic study, 3 mg/kg IV, 10 mg/kg PO and 10 mg/kg PO QD*3, plasma, liver and bone; type: in vivo, mouse; settings: female, C57BL/6 J, mouse, liver, po, 10 mg/kg, liver, PO (QD*3), 0.083 h, individual animals; read-out: Liver 6641 PO (QD*3) concentration
observation type: concentration at 0.083 h (ng/g)

[[record]]
smiles_record = "O=C1Nc2ccc(-c3cc(C(F)(F)F)cc(C(F)(F)F)c3)cc2C(=O)N2CCN(C(=O)COc3ccc(OC(F)(F)F)cc3I)C[C@@H]12"
observation_type = "concentration at 0.083 h"
reported_measurement = 44.1


* * *

assay: Pharmacokinetic study, 3 mg/kg IV, 10 mg/kg PO and 10 mg/kg PO QD*3, plasma, liver and bone; format: in vivo, mouse; conditions: female, C57BL/6 J, mouse, plasma, iv, 3 mg/kg, IV, Time 1 h; individual values (1)-(3); read-out: Plasma concentration
observation type: concentration at 1 h (ng/mL)

[[record]]
compound = "O=C1Nc2ccc(-c3cc(C(F)(F)F)cc(C(F)(F)F)c3)cc2C(=O)N2CCN(C(=O)COc3ccc(OC(F)(F)F)cc3I)C[C@@H]12 [compound 6641]"
observation_type = "concentration at 1 h"
reported_measurement = 343


* * *

test: Pharmacokinetic study, 3 mg/kg IV, 10 mg/kg PO and 10 mg/kg PO QD*3, plasma, liver and bone; assay type: in vivo, mouse; conditions: female, C57BL/6 J, mouse, plasma, iv, 3 mg/kg, IV, Time 0.25 h; individual values (1)-(3); read-out: Plasma concentration
observation type: concentration at 0.25 h (ng/mL)

[[record]]
compound = "O=C1Nc2ccc(-c3cc(C(F)(F)F)cc(C(F)(F)F)c3)cc2C(=O)N2CCN(C(=O)COc3ccc(OC(F)(F)F)cc3I)C[C@@H]12 [compound 6641]"
observation_type = "concentration at 0.25 h"
reported_measurement = 1260


* * *

test: Pharmacokinetic study, single 30 mg/kg IP dose, plasma, liver and bone; format: in vivo, mouse; details: female, C57BL/6J, mouse, liver, ip, 30 mg/kg, IP, Time 0.25 h; individual values (1)-(3); read-out: Liver concentration
observation type: concentration at 0.25 h (ng/g)

[[record]]
compound = "O=C1Nc2ccc(-c3cc(C(F)(F)F)cc(C(F)(F)F)c3)cc2C(=O)N2CCN(C(=O)COc3ccc(OC(F)(F)F)cc3I)C[C@@H]12 [compound 6641]"
observation_type = "concentration at 0.25 h"
unit_of_measurement = "ng/g"
reported_measurement = 1800

